Values were extracted from paper PMC3034772.

# METHOD_DESCRIPTION: In combo PAMPA-BBB model, calculated log Po in situ
# DETAILS: no efflux inhibition
QUANTITY_NAME: obs–calc (log Po^in situ)
The response must contain the number and no unit.

Fill in reported obs–calc (log Po^in situ) for this entry: CN1CCN2c3ncccc3Cc3ccccc3C2C1 (stereo not drawn)
−0.2

Fill in reported obs–calc (log Po^in situ) for this entry: CNCC[C@@H](Oc1ccccc1C)c1ccccc1
0.5

Fill in reported obs–calc (log Po^in situ) for this entry: OCCN1CCN(CCCN2c3ccccc3Sc3ccc(C(F)(F)F)cc32)CC1
−1.0

###

# METHOD_DESCRIPTION: Charge class Q, dominant calculated charge state at pH 7.4
# Type: physicochemical
# DETAILS: dominant calculated concentration fraction of the drug in a charge state
QUANTITY_NAME: Q (charge class)

{"columns": ["COMPOUND", "ENDPOINT_RESULT"],
 "data": [
  ["Cn1c(=O)c2c(ncn2C)n(C)c1=O [Caffeine]", 0],
  ["CNCCCC12CCC(c3ccccc31)c1ccccc12 [Maprotiline]", "+"],
  ["OCCOCCN1CCN(C(c2ccccc2)c2ccc(Cl)cc2)CC1 (stereo not shown) [Hydroxyzine]", 0],
  ["CCCCNC(=O)NS(=O)(=O)c1ccc(C)cc1 [Tolbutamide]", "−"]
]}

###

# DETAILS: PAMPA
Assign log Ppara to each entry below.

Fill in reported log Ppara for this entry: Oc1ccc2c3c1O[C@H]1c4[nH]c5ccccc5c4C[C@@]4(O)[C@@H](C2)N(CC2CC2)CC[C@]314
−6.20

Fill in reported log Ppara for this entry: COc1ccc2c3c1O[C@H]1[C@@H](O)C=C[C@H]4[C@@H](C2)N(C)CC[C@@]341
−7.16

Fill in reported log Ppara for this entry: O=C1NC(=O)C(c2ccccc2)(c2ccccc2)N1
−6.93

###

# DETAILS: PAMPA, pH 7.4
Assign Pm^7.4 to each entry below.
The response must contain the number and no unit.

Fill in reported Pm^7.4 for this entry: COc1ccc(Cl)cc1C(=O)NCCc1ccc(S(=O)(=O)NC(=O)NC2CCCCC2)cc1 [Glibenclamide]
15

Fill in reported Pm^7.4 for this entry: CCCN1C[C@H](C)N([C@H](c2ccc(C(=O)N(CC)CC)cc2)c2cccc(OC)c2)C[C@H]1C [SNC121]
201

Fill in reported Pm^7.4 for this entry: CC(C)c1nc(CN(C)C(=O)N[C@H](C(=O)N[C@@H](Cc2ccccc2)C[C@H](O)[C@H](Cc2ccccc2)NC(=O)OCc2cncs2)C(C)C)cs1 [Ritonavir]
57

Fill in reported Pm^7.4 for this entry: CN(Cc1cnc2nc(N)nc(N)c2n1)c1ccc(C(=O)N[C@@H](CCC(=O)O)C(=O)O)cc1 [Methotrexate]
0.001

###

# DETAILS: PAMPA
QUANTITY_NAME: log PABL
The response must contain the number and no unit.

Fill in reported log PABL for this entry: OCCN1CCN(CCCN2c3ccccc3Sc3ccc(C(F)(F)F)cc32)CC1 [Fluphenazine]
−3.24

Fill in reported log PABL for this entry: NC(=O)N1c2ccccc2C=Cc2ccccc21 [Carbamazepine]
−3.25

Fill in reported log PABL for this entry: CC(C(=O)O)c1ccc(-c2ccccc2)c(F)c1 (stereo not shown) [Flurbiprofen]
−2.84

Fill in reported log PABL for this entry: COc1ccc(CCN2CCC(Nc3nc4ccccc4n3Cc3ccc(F)cc3)CC2)cc1 [Astemizole]
−3.54

Fill in reported log PABL for this entry: CCCN1C[C@H](CSC)C[C@@H]2c3cccc4[nH]cc(c34)C[C@H]21 [Pergolide]
−3.25

Fill in reported log PABL for this entry: O=C1C[C@@H](c2ccc(O)cc2)Oc2cc(O)cc(O)c21 [Naringenin]
−4.00

Fill in reported log PABL for this entry: CSc1ccc2c(c1)N(CCC1CCCCN1C)c1ccccc1S2 (stereo not shown) [Thioridazine]
−2.84
